system_tested: Recombinant human IL-2 (human, UniProt P60568 21-153)
assay: cell-based or functional assay
measurement_name: pSTAT5a,b Ratio of EC50s (Rαβγ/Rβγ), murine cells
Please state the value as a number alone, without comment.

I'd like to know its pSTAT5a,b Ratio of EC50s (Rαβγ/Rβγ), murine cells. The binder in question is XPA.92.041 (antibody, V domains shown, Tested as purified full-length human IgG) VH: EVQLVQSGAEVKKPGESLKISCKGSGYNFDTYWIGWVRQMPGRGLEWMGTIYPADSDTRYSPSFQGQVTTSADKSISTAYLQWGSLRASDTAMYYCARFSSSAYDIWGQGTMVTVSS VL: SYELTQPPSVSVSPGQTARITCSGDALPRQFAYWYQQKPGQAPVLVIYKDTERPSGIPERFSGSSSGTTVTLTISGVQAEDEADYYCQSADSSGTYHVFGGGTQLTVLG 34

Every entry's value here was drawn from patent US20180094053A1.
